# credit: patent US9695155B2

Test system: rice
protocol text: Test C flooded paddy test
Format: in vivo, Oryza sativa
conditions: Flood, 250 g ai/ha; scale 0 to 100 (0 no effect, 100 complete control), 13 to 15 days
Can you tell me Plant response rating, Rice for the items I'm about to list?
Lab note: jot the number down without any unit.

For the compound FC(F)(F)c1cnn(-c2ccccc2Oc2ncc(Br)cn2)c1 , what Plant response rating, Rice is on record?
10

For the compound Clc1cnc(Oc2ccccc2-n2cc(Cl)cn2)nc1 , what Plant response rating, Rice is on record?
0

For the compound FC(F)c1cccc(Oc2ncc(Cl)cn2)c1-n1cc(Br)cn1 , what Plant response rating, Rice is on record?
10

For the compound Fc1cccc(Oc2ncc(Cl)cn2)c1-n1cc(I)cn1 , what Plant response rating, Rice is on record?
10

---

Tested on: velvetleaf
protocol text: Test A postemergence
Type: in vivo, Abutilon theophrasti
conditions: 125 g ai/ha, 0 to 100 scale where 0 is no effect and 100 is complete control
assay readout: Velvetleaf plant response rating
Lab note: jot the number down without any unit.

For the molecule C=C(C)c1cccc(Oc2ncc(Cl)cn2)c1-n1cc(Br)cn1 , what Velvetleaf plant response rating is on record?
90

For the molecule O=Cc1cccc(Oc2ncc(Br)cn2)c1-n1cc(I)cn1 , what Velvetleaf plant response rating is on record?
20

For the molecule N#Cc1cc(F)cc(Oc2ncc(Br)cn2)c1-n1cc(Br)cn1 , what Velvetleaf plant response rating is on record?
50

For the molecule Cc1ccc(Oc2ncc(Cl)cn2)c(-n2cc(Br)cn2)c1Br , what Velvetleaf plant response rating is on record?
50

For the molecule O=Cc1cccc(Oc2ncc(Br)cn2)c1-n1cc(C(F)(F)F)cn1 , what Velvetleaf plant response rating is on record?
10

For the molecule Fc1cccc(Oc2ncc(Cl)cn2)c1-n1cc(Br)cn1 , what Velvetleaf plant response rating is on record?
100

For the molecule FC(F)c1cccc(Oc2ncc(Br)cn2)c1-n1cc(I)cn1 , what Velvetleaf plant response rating is on record?
90

For the molecule N#Cc1cccc(Oc2ncc(Cl)cn2)c1-n1cc(Br)cn1 , what Velvetleaf plant response rating is on record?
30

For the molecule N#Cc1cccc(Oc2ncc(Cl)cn2)c1-n1cc(I)cn1 , what Velvetleaf plant response rating is on record?
100

---

System: blackgrass
protocol text: Test C preemergence
Format: in vivo, Alopecurus myosuroides
conditions: Alopecurus myosuroides, pre-emergence; 125 g ai/ha, preemergence; scale 0 (no effect) to 100 (complete control); read-out: Blackgrass plant response rating
Can you tell me pest or weed control at 125 g/ha for the items I'm about to list?
Output spec: scalar in %, unitless text.

For the compound FC(F)(F)COc1cnn(-c2ccccc2Oc2ncc(Cl)cn2)c1 , what pest or weed control at 125 g/ha is on record?
90

For the compound N#Cc1cccc(Oc2ncc(Cl)cn2)c1-n1cc(C(F)(F)F)cn1 , what pest or weed control at 125 g/ha is on record?
90

For the compound N#Cc1cccc(Oc2ncc(Br)cn2)c1-n1cc(C(F)(F)F)cn1 , what pest or weed control at 125 g/ha is on record?
90

For the compound FC(F)(F)c1cn(-c2ccccc2Oc2ncc(Cl)cn2)nn1 , what pest or weed control at 125 g/ha is on record?
100
